In this section, each of the compounds is paired with its reported pIC50.
Biological target: Axl (Homo sapiens)
Sequence (P30530 26-894): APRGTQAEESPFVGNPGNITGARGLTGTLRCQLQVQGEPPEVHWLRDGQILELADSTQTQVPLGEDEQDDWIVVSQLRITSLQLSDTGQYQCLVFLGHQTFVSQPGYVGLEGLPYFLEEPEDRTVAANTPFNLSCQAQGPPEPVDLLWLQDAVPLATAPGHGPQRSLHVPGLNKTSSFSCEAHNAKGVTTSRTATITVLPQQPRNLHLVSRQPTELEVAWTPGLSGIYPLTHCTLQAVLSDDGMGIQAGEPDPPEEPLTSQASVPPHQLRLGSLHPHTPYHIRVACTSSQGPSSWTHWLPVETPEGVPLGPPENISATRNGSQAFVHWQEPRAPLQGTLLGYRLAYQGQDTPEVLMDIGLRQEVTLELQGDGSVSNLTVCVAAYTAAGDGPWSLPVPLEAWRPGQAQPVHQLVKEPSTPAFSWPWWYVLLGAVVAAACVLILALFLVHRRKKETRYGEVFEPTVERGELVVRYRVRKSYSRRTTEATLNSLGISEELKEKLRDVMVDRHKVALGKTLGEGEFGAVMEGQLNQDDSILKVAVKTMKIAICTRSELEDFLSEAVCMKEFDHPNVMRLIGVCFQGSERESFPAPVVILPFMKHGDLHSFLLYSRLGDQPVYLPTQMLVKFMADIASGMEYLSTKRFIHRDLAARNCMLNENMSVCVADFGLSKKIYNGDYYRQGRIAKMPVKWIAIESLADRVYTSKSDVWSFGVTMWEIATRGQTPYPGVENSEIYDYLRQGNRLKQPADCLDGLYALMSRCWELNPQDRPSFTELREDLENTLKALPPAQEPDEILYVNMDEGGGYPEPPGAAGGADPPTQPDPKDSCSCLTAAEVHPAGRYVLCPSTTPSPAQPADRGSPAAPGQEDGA
Assay: Axl NanoBRET intracellular kinase assay (Cell Binding)
Design: host or cells: HEK-293
Conditions: HEK-293 cells transfected with Axl-NanoLuc fusion vector; displacement of K-5 NanoBRET tracer
pIC50: −log10 of the molar value.

- compound: "O=C1NCCOc2cc(-c3n[nH]c4ncc(-c5ccc6c(c5)CCC(N[C@H]5CCOC5)C6)cc34)ccc21 (stereo partly shown)"
  value_measured: "> 7.00"
- compound: "O=C1NCCOc2cc(-c3n[nH]c4ncc(-c5cc(Cl)c6c(c5)CCN(C5CCCC5)C6)cc34)ccc21"
  value_measured: "< 6.00"
- compound: "O=C1NCCOc2cc(-c3n[nH]c4ncc(-c5ccc6c(c5)CCC(N5CCOCC5)CC6)cc34)ccc21 (stereo not shown)"
  value_measured: "> 7.00"

# context switch: different compound, same pIC50
[in] What value of pIC50 has been recorded for this entry: O=C1NCCOc2cc(-c3n[nH]c4ncc(-c5ccc6c(c5)CCN(C5CC5)C6)cc34)ccc21
[out] 6.00 to 7.00

* * *

Target: UniProtKB P30530
Assay: Axl NanoBRET intracellular kinase assay (Cell Binding)
Design: host or cells: HEK-293
Details: HEK-293 cells transfected with Axl-NanoLuc fusion vector; displacement of K-5 NanoBRET tracer
pIC50: −log10 of the molar value.
measured_attribute: pIC50

- compound: "O=C1NCCOc2cc(-c3n[nH]c4ncc(-c5ccc6c(n5)CCC(N5CCCC5)CC6)cc34)ccc21 (stereo not drawn)"
  value_measured: "6.00 to 7.00"
- compound: "O=C1NCCOc2cc(-c3n[nH]c4ncc(-c5ccc6c(c5)CC[C@@H](N5CCCC5)CC6)cc34)ccc21 (single isomer, unassigned)"
  value_measured: "> 7.00"

# context switch: different compound, same pIC50
[in] What value of pIC50 has been recorded for this entry: CC1(C)NS(=O)(=O)c2cc(-c3n[nH]c4ncc(-c5ccc6c(c5)CCC(N5CCC[C@@H]5CO)CC6)cc34)ccc21 (stereo partly drawn)
[out] > 7.00

* * *

Target: Axl (Homo sapiens)
Assay: Axl NanoBRET intracellular kinase assay (Cell Binding)
Design: host or cells: HEK-293
Conditions: HEK-293 cells transfected with Axl-NanoLuc fusion vector; displacement of K-5 NanoBRET tracer
In this section, each of the compounds is paired with its reported IC50.

- compound: "O=C1NCCOc2cc(-c3n[nH]c4ncc(-c5ccc6c(c5)CCN(C5CC5)CC6)cc34)ccc21 [Example 20]"
  assay_system: "Axl (Homo sapiens)"
  IC50: "100 to 1000 nM"
- compound: "CC1(O)CCc2cc(-c3n[nH]c4ncc(-c5ccc6c(c5)CC[C@@H](N5CCCC5)CC6)cc34)ccc21 (stereo partly shown) [Example 30]"
  assay_system: "Axl (Homo sapiens)"
  IC50: "< 100 nM"
- compound: "Cc1c(-c2n[nH]c3ncc(-c4ccc5c(c4)CCC(N4CCC[C@H]4C)CC5)cc23)ccc2c1OCCNC2=O (stereo partly shown) [Example 41]"
  assay_system: "Axl (Homo sapiens)"
  IC50: "< 100 nM"
- compound: "C[C@H]1CCCN1C1CCc2ccc(-c3cnc4[nH]nc(-c5ccc6c(c5)OCCNC6=O)c4c3)cc2CC1 (stereo partly shown) [Example 43]"
  assay_system: "Axl (Homo sapiens)"
  IC50: "< 100 nM"
- compound: "C[C@@H]1CCCN1C1CCc2ccc(-c3cnc4[nH]nc(-c5ccc6c(c5)OCCNC6=O)c4c3)cc2CC1 (stereo partly shown) [Example 44]"
  assay_system: "Axl (Homo sapiens)"
  IC50: "< 100 nM"

[in] What value of IC50 has been recorded for this entry: O=C1NCCOc2cc(-c3n[nH]c4ncc(-c5ccc6c(c5)CCN(C5CCCC5)CC6)cc34)ccc21 [Example 7]
[out] < 100 nM

[in] What value of IC50 has been recorded for this entry: CC1(O)CCCOc2cc(-c3n[nH]c4ncc(-c5ccc6c(c5)CCN(C5CCCC5)CC6)cc34)ccc21 (stereo not shown) [Example 28]
[out] 100 to 1000 nM
